# test_summary: total protein half-life in vivo (active degradation + dilution); higher = more stable protein
# measurement_context: wild type E. coli NCM3722; growth: P-lim chemostat; doubling time 12 h
Catalogue of sequences with associated total protein half-life in vivo
recorded_metric: total protein half-life in vivo

>  <residue_codes>
MRKSVIAIIIIVLVVLYMSVFVVKEGERGITLRFGKVLRDDDNKPLVYEPGLHFKIPFIETVKMLDARIQTMDNQADRFVTKEKKDLIVDSYIKWRISDFSRYYLATGGGDISQAEVLLKRKFSDRLRSEIGRLDVKDIVTDSRGRLTLEVRDALNSGSAGTEDEVTTPAADNAIAEAAERVTAETKGKVPVINPNSMAALGIEVVDVRIKQINLPTEVSEAIYNRMRAEREAVARRHRSQGQEEAEKLRATADYEVTRTLAEAERQGRIMRGEGDAEAAKLFADAFSKDPDFYAFIRSLRAYENSFSGNQDVMVMSPDSDFFRYMKTPTSATR [P0ABC3]

>  <recorded_metric>
total protein half-life in vivo

>  <result>
13.8 h

$$$$
>  <residue_codes>
MLIPWQDLSPETLENLIESFVLREGTDYGEHERTLEQKVADVKRQLQCGEAVLVWSELHETVNIMPRSQFRE

>  <recorded_metric>
total protein half-life in vivo

>  <result>
7.98 h

$$$$
>  <residue_codes>
MQSVDVAIVGGGMVGLAVACGLQGSGLRVAVLEQRVQEPLAANAPPQLRVSAINAASEKLLTRLGVWQDILSRRASCYHGMEVWDKDSFGHISFDDQSMGYSHLGHIVENSVIHYALWNKAHQSSDITLLAPAELQQVAWGENETFLTLKDGSMLTARLVIGADGANSWLRNKADIPLTFWDYQHHALVATIRTEEPHDAVARQVFHGEGILAFLPLSDPHLCSIVWSLSPEEAQRMQQASEDEFNRALNIAFDNRLGLCKVESARQVFPLTGRYARQFASHRLALVGDAAHTIHPLAGQGVNLGFMDAAELIAELKRLHRQGKDIGQYIYLRRYERSRKHSAALMLAGMQGFRDLFSGTNPAKKLLRDIGLKLADTLPGVKPQLIRQAMGLNDLPEWLR

>  <recorded_metric>
total protein half-life in vivo

>  <result>
5.3 h

$$$$
